# targetUnderTest: Mot3 (UniProt P54785)
# Sequence: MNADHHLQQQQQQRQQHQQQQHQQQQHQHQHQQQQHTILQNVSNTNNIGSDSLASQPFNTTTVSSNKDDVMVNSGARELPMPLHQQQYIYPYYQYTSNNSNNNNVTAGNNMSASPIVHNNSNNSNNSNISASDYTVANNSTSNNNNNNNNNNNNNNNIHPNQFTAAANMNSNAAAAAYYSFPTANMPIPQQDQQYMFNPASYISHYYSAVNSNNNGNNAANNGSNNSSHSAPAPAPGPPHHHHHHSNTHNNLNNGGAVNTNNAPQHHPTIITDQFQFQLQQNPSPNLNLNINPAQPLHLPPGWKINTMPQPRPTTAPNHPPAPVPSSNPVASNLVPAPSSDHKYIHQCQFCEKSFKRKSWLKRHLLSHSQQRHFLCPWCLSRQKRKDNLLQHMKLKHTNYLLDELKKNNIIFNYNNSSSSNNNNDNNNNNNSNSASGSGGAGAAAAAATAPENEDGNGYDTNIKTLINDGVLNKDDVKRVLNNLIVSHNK
# methodDescription: PBM E-score (8-mer binding enrichment) (E-score (-0.5 to 0.5)); higher = stronger / more preferred TF binding
# statedConditions: protein concentration: 200 nM; construct: GST-full length
In all, about 33,000 sequences were measured (“E-score (-0.5 to 0.5)”: median about -0.035, highest 2% from about 0.34 on). Many of the other results were omitted from the sample, so the highest values are more common in it than they were.
# cutoff 0.3 applies to PBM E-score; >= gives true (1), < gives false (0)

• AGGTACTC = true (1)

Req: Check the entry "CAGTGTAC" : does PBM E-score equal or exceed 0.3?
Resp: false (0)

Req: Check the entry "AAGTGTAG" : does PBM E-score equal or exceed 0.3?
Resp: false (0)

Req: Check the entry "AGTACCAG" : does PBM E-score equal or exceed 0.3?
Resp: false (0)

Req: Check the entry "AGGTACTG" : does PBM E-score equal or exceed 0.3?
Resp: false (0)

Req: Check the entry "GTCTGATA" : does PBM E-score equal or exceed 0.3?
Resp: false (0)

Req: Check the entry "CAGGAACA" : does PBM E-score equal or exceed 0.3?
Resp: true (1)

Req: Check the entry "GAGGAACC" : does PBM E-score equal or exceed 0.3?
Resp: false (0)

Req: Check the entry "AGCCTGCA" : does PBM E-score equal or exceed 0.3?
Resp: true (1)

Req: Check the entry "CGCACTCC" : does PBM E-score equal or exceed 0.3?
Resp: false (0)

Req: Check the entry "GCACAGTA" : does PBM E-score equal or exceed 0.3?
Resp: false (0)

Req: Check the entry "CCGTGTCC" : does PBM E-score equal or exceed 0.3?
Resp: false (0)

Req: Check the entry "ACGTGTAT" : does PBM E-score equal or exceed 0.3?
Resp: true (1)

Req: Check the entry "ACATTAGT" : does PBM E-score equal or exceed 0.3?
Resp: false (0)

Req: Check the entry "CAGAAACA" : does PBM E-score equal or exceed 0.3?
Resp: false (0)

Req: Check the entry "AGTACCTG" : does PBM E-score equal or exceed 0.3?
Resp: true (1)

Req: Check the entry "ACGTACGG" : does PBM E-score equal or exceed 0.3?
Resp: false (0)

Req: Check the entry "AAGGCTGC" : does PBM E-score equal or exceed 0.3?
Resp: false (0)
